Where do the numbers come from? From the supplement of paper PMC11208160.

# assay.procedure: recombinant barcode read abundance after kanamycin selection (control-corrected) (log10(CPM+1)); higher = more efficient recombination; sequences stand for … in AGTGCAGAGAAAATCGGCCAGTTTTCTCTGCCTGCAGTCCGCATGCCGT…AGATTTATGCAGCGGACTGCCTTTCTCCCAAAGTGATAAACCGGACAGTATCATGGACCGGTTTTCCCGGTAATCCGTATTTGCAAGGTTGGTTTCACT; site = the 11-nt target;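 note: IS621 recombinase and bridge RNA in Escherichia coli cells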
Please note: 1 (yes) applies when recombinant barcode read abundance (log10) is 0.2 or greater, and 0 (no) applies otherwise.

Solved entries (count: 2):
biosequence: GATGCTACTTGGGTTCTAACCTGTTGCAG (site GATACTACTCT)
class.name: 0 (no)
//
biosequence: TTCTGTTCTTGGGTTCTAACCTGTTGCCT (site TTCTCTTCTAG)
class.name: 0 (no)

Determine whether this sequence has recombinant barcode read abundance (log10) no lower than 0.2: GTCTATACTTGGGTTCTAACCTGTTGCCT (site GTATATACTAG) 0 (no)

Determine whether this sequence has recombinant barcode read abundance (log10) no lower than 0.2: TGCTACCCTTGGGTTCTAACCTGTTGCCT (site TGCTACCCTAG) 1 (yes)

Determine whether this sequence has recombinant barcode read abundance (log10) no lower than 0.2: CTATGTGCTTGGGTTCTAACCTGTTGCGT (site CTATGTGCTAT) 1 (yes)
